Reported MIC values for the following molecules.
Tested on: P. aeruginosa WT (PAO1)
assay_text: MIC, CLSI broth microdilution, P. aeruginosa
Type: cell-based
test_settings: Pseudomonas aeruginosa, PAO1; CLSI broth microdilution; read-out: P. aeruginosa WT (PAO1) MIC
observable: MIC

molecule="CN/C(=N\\OC(=O)NC1CCNCC1)[C@@H]1c2c(cnn2C)[C@@H]2CN1C(=O)N2OS(=O)(=O)O (racemic)" result="< 8 µg/mL"
molecule=CN/C(=N\O)[C@@H]1c2c(cnn2CCCCN)[C@@H]2CN1C(=O)N2OS(=O)(=O)O result="< 8 µg/mL"
molecule=CN/C(=N\OS(N)(=O)=O)[C@@H]1c2c(cnn2C)[C@@H]2CN1C(=O)N2OS(=O)(=O)O result="8 to 16 µg/mL"
molecule="CN(O)/C(=N\\O)[C@@H]1c2c(cnn2C)[C@@H]2CN1C(=O)N2OS(=O)(=O)O (racemic)" result="< 8 µg/mL"
